# Assayed target: human GST-p38 kinase alpha (Homo sapiens, UniProt Q16539)
# Construct: The coding region of the human p38a cDNA was obtained by PCR-amplification from RNA isolated from the human monocyte cell line THP.1; made in house; host or cells: E. coli DH10B
# Sequence (Q16539 whole entry): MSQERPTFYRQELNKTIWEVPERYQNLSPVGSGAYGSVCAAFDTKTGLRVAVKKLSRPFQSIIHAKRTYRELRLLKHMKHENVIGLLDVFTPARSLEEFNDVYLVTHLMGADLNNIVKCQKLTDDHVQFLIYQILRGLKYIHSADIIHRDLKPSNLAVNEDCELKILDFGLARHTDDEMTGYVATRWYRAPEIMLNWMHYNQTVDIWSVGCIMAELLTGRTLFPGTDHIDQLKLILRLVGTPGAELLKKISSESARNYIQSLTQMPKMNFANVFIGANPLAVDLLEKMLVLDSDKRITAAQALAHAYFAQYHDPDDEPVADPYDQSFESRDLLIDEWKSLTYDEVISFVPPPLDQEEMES
# Protocol summary: p38 kinase in vitro assay, second format, phosphorylation of EGFRP with 33P-ATP
# Assay type: biochemical
# Experimental conditions: Table 10, 10% DMSO; @ 1.0 hour; read-out: p38α Kinase Assay IC50
Outcome measure: IC50 (nM)
Provide the reading as a plain figure in nM.

See these solved cases before continuing.
Compound | Observed result
Cc1cccc(C(=O)Cc2ccncc2)c1 [A-389, Step 1, 1-tolyl-2-(4-pyridyl)ethanone] | 1720
Cc1cc(-c2n[nH]c(N3CCN(C)CC3)c2-c2ccncc2)ccc1Cl [Example A-407] | 180
CSc1[nH]nc(-c2ccc(F)cc2)c1-c1ccncc1 [Example A-434] | 5840
O=C1CN(Cc2ccccc2)CC(=O)N1c1[nH]nc(-c2ccc(Cl)cc2)c1-c1ccncc1 [Example A-428] | 400
CC(C)(C)OC(=O)N1CCC(Sc2[nH]nc(-c3ccc(Cl)cc3)c2-c2ccncc2)CC1 [Example A-458] | 8700

Inquiry: // IC50 lookup, key: CN1CCN(c2n[nH]c(-c3ccc(C#N)cc3)c2-c2ccncc2)CC1 [Example A-412]
Reply text: 2150

Inquiry: Same read-out for COc1ccc(C[S+]([O-])c2[nH]nc(-c3ccc(F)cc3)c2-c2ccncc2)cc1 (centres unmarked) [Example A-466] ?
Reply text: 20100

Inquiry: Same read-out for COc1ccc(CSc2[nH]nc(-c3ccc(F)cc3)c2-c2ccncc2)cc1 [Example A-452] ?
Reply text: 2870

Inquiry: Same read-out for COc1ccc(C(=O)C(=C2SCS2)c2ccncc2)cc1 [Example A-399] ?
Reply text: 22900

Inquiry: Same read-out for C#CCSc1[nH]nc(-c2ccc(Cl)cc2)c1-c1ccncc1 [Example A-478] ?
Reply text: 180

Inquiry: Same read-out for Clc1ccc(-c2n[nH]c(SCCc3c[nH]c4ccccc34)c2-c2ccncc2)cc1 [Example A-481] ?
Reply text: 200

Inquiry: Same read-out for N#CCSc1[nH]nc(-c2ccc(Cl)cc2)c1-c1ccncc1 [Example A-456] ?
Reply text: 120

Inquiry: Same read-out for Clc1ccc(-c2n[nH]c(OC3CCNCC3)c2-c2ccncc2)cc1 [Example A-442] ?
Reply text: 22

Inquiry: Same read-out for [O-][S+](c1[nH]nc(-c2ccc(Cl)cc2)c1-c1ccncc1)C1CCNCC1 (centres unmarked) [Example A-482] ?
Reply text: 1620

---

// values below are reported pIC50
# Assayed target: human p38 kinase alpha (Homo sapiens)
# Construct: The coding region of the human p38a cDNA was obtained by PCR-amplification from RNA isolated from the human monocyte cell line THP.1; GST (N); made in house; host or cells: E. coli DH10B
# Sequence (Q16539 whole entry): as above
# Protocol summary: p38 kinase in vitro assay, phosphorylation of biotinylated PHAS-I with gamma 32P-ATP
# Assay type: biochemical
# Experimental conditions: read-out: P38 alpha kinase IC50
Scale: negative log10 of molar concentration, which is what pIC50 denotes.

See these solved cases before continuing.
Compound | pIC50
Cc1ccc(S(=O)(=O)N[C@H](C)c2[nH]nc(-c3ccc(F)cc3)c2-c2ccncc2)cc1 | 6.85
COCC(=O)N1CCCC(c2[nH]nc(-c3ccc(F)cc3)c2-c2ccncc2)C1 (centres unmarked) | 6.70
COCc1[nH]nc(-c2ccc(Cl)cc2)c1-c1ccncc1 | 7.38
CCS(=O)(=O)N[C@H](C)c1[nH]nc(-c2ccc(F)cc2)c1-c1ccncc1 | 7.06
C[C@@H](NS(=O)(=O)c1ccc(F)cc1Cl)c1[nH]nc(-c2ccc(F)cc2)c1-c1ccncc1 | 6.08
CC(=O)Nc1nc(C)c(S(=O)(=O)N[C@H](C)c2[nH]nc(-c3ccc(F)cc3)c2-c2ccncc2)s1 | 6.54

Inquiry: // pIC50 lookup, key: CC(=O)NCc1[nH]nc(-c2ccc(F)cc2)c1-c1ccncc1
Reply text: 6.85

Inquiry: Same read-out for O=C(NCc1[nH]nc(-c2ccc(F)cc2)c1-c1ccncc1)c1cccc(F)c1 ?
Reply text: 6.66
